Exercise: state measured TGI for each of the molecules provided.
- Test system: T-47D breast
- Procedure Text: NCI tumour cell line growth inhibition, 48 h
Enter your answer as a number in µM; do not include the unit.

Query :: What value of TGI has been recorded for this entry: OC1(c2ccccc2)CC2CCC(C1)N2CCCC(O)(c1ccccc1)c1ccccc1 (stereo unspecified)
Result :: 50.3

Query :: What value of TGI has been recorded for this entry: Cc1c(C)c2c(c(C)c1OC(=O)CCC(=O)[O-])CCC(C)(CCCCCCCCCCC[P+](c1ccccc1)(c1ccccc1)c1ccccc1)O2 (stereo unspecified)
Result :: 0.966

Query :: What value of TGI has been recorded for this entry: Cc1ccc(S(=O)(=O)N(CC(O)COc2ccccc2)c2c(F)c(F)cc(F)c2F)cc1 (stereo unspecified)
Result :: 78.3

Query :: What value of TGI has been recorded for this entry: CN(C)c1ccc(/C=C/C(=O)c2ccc(Nc3nc(Nc4ccc(F)cc4)nc(Nc4ccc(F)cc4)n3)cc2)cc1
Result :: 51.7

Query :: What value of TGI has been recorded for this entry: CN1CCN(CCCOc2cccc3nc(Nc4cc(Cl)cc(Cl)c4)ccc23)CC1
Result :: 3.76

Query :: What value of TGI has been recorded for this entry: Cc1cccc(C(C)(C)C)c1NC(=O)C(C#N)C1=C(Cl)C(=O)c2ccccc2C1=O (stereo unspecified)
Result :: 26.1

Query :: What value of TGI has been recorded for this entry: Nc1n[n+]([O-])c2cc([N+](=O)[O-])ccc2[n+]1[O-]
Result :: 18.6

Query :: What value of TGI has been recorded for this entry: COc1ccc(C(=O)/C=C/c2sc(Cl)nc2Cl)cc1
Result :: 9.23

Query :: What value of TGI has been recorded for this entry: Cc1cc(F)c(C(=O)Nc2cccc(-c3nncn3C(C)C)n2)cc1-n1cnc(C2CC2)c1
Result :: 9.95

Query :: What value of TGI has been recorded for this entry: C[C@@H](O)[C@@H](C)Oc1nc(Nc2ccc(S(=N)(=O)C3CC3)cc2)ncc1C(F)(F)F (stereo partly specified)
Result :: 6.62

Query :: What value of TGI has been recorded for this entry: O=C1/C(=C/c2cccnc2)SC(=S)N1Cc1ccco1
Result :: 64.6

Query :: What value of TGI has been recorded for this entry: O=CC(OC(=O)c1ccccc1)C(OC(=O)c1ccccc1)C(COC(c1ccccc1)(c1ccccc1)c1ccccc1)OC(=O)c1ccccc1 (stereo unspecified)
Result :: 22.7

----------
- System: HOP-92 NSCLC
- Procedure Text: NCI tumour cell line growth inhibition, 48 h
Outcome Measure: TGI (µM)
Enter your answer as a number in µM; do not include the unit.

Query :: What value of TGI has been recorded for this entry: CC/C=C\C[C@H]1C/C=C2/C(=O)C=C[C@H]2C/C=C\CCCC(=O)O1
Result :: 10.1

Query :: What value of TGI has been recorded for this entry: CN(C)c1ccc(/C=C/C(=O)c2ccc(Nc3nc(Nc4ccc(F)cc4)nc(Nc4ccc(F)cc4)n3)cc2)cc1
Result :: 24

Query :: What value of TGI has been recorded for this entry: c1ccc2c(c1)[nH]c1cnc3c4ncccc4[nH]c3c12
Result :: 79.3

----------
- System: OVCAR-5 ovarian
- Procedure Text: NCI tumour cell line growth inhibition, 48 h
Exercise: state measured TGI for each of the compounds provided.

Query :: Please provide the recorded TGI for Cc1nnc(C[C@@H]2C=C(c3ccc(Cl)cc3)c3ccccc3-n3c(C)nnc32)o1 , tested on OVCAR-5 ovarian.
Result :: > 100 µM

Query :: Please provide the recorded TGI for O=C(Nc1ccccc1[N+](=O)[O-])/C(=N/Nc1cccc(Cl)c1)c1c(O)c2ccccc2oc1=O , tested on OVCAR-5 ovarian.
Result :: > 100 µM

Query :: Please provide the recorded TGI for COC(=O)C(=O)C(CC(=O)Nc1cc(Cl)ccc1Cl)C(=O)OC (stereo not drawn) , tested on OVCAR-5 ovarian.
Result :: > 100 µM

Query :: Please provide the recorded TGI for COc1ccc(-c2nn(-c3cccc(Cl)c3)cc2/C=C2\NC(=S)N(c3ccc(Cl)cc3)C2=O)cc1 , tested on OVCAR-5 ovarian.
Result :: > 25 µM

Query :: Please provide the recorded TGI for C=C1CCC2CC1C(C(=O)c1c[nH]c3ccccc13)=NC2(C)C (stereo not drawn) , tested on OVCAR-5 ovarian.
Result :: > 100 µM

Query :: Please provide the recorded TGI for COC1(OC)CC2C(=O)N(Cc3ccccc3)C1C(S(=O)(=O)c1ccccc1)C2C(C)S(=O)(=O)c1ccccc1 (stereo not drawn) , tested on OVCAR-5 ovarian.
Result :: > 100 µM

Query :: Please provide the recorded TGI for COc1ccccc1C1C2=C(COC2=O)Oc2cc3c(cc21)OCO3 (stereo not drawn) , tested on OVCAR-5 ovarian.
Result :: > 92.4 µM

Query :: Please provide the recorded TGI for C[C@@H](C1CC[C@H]2[C@@H]3[C@@H]4O[C@@H]4[C@@]4(O)CC=CC(=O)[C@]4(C)[C@H]3C[C@H](O)[C@]12C)[C@H]1C[C@]2(C)O[C@]2(C)C(=O)O1 (stereo partly drawn) , tested on OVCAR-5 ovarian.
Result :: > 100 µM

----------
- Test system: OVCAR-3 ovarian
- Procedure Text: NCI tumour cell line growth inhibition, 48 h; in the data active = GI50 below about 0.43 µM; inactive = the rest
Form entry, call: pick from T = active, F = inactive

Query :: What was the test verdict on COc1ccc(-n2cc(-c3cc(OC)c(OC)c(OC)c3)nc2SCc2ccc(Cl)cc2)cc1OC ?
Result :: F

Query :: What was the test verdict on CCN(C(=O)N1CCN(c2cc3c(cc2F)c(=O)c(C(=O)O)cn3C2CC2)CC1)c1nc(-c2ccccc2)cs1 ?
Result :: F

Query :: What was the test verdict on Clc1ccc(-c2cc(-c3ccccc3)nc(N3CCN(CCCNc4ccnc5cc(Cl)ccc45)CC3)n2)cc1 ?
Result :: F

Query :: What was the test verdict on Cc1nc2ccccn2c1NC(=O)NN1C(=O)CSC1c1ccc(Cl)cc1 (centres undefined) ?
Result :: F

Query :: What was the test verdict on CN1CCN(CCCOc2cccc3nc(Nc4cc(Cl)cc(Cl)c4)ccc23)CC1 ?
Result :: F

Query :: What was the test verdict on Oc1ccc(NC(=S)Nc2ccccc2)cc1 ?
Result :: F

Query :: What was the test verdict on CCN(CC)CCNc1c2ccccc2nc2cccc([N+](=O)[O-])c12 ?
Result :: T

Query :: What was the test verdict on CN(C)c1ccc(/C=C/C(=O)c2ccc(Nc3nc(Nc4ccc(F)cc4)nc(Nc4ccc(F)cc4)n3)cc2)cc1 ?
Result :: F

Query :: What was the test verdict on COc1ccc2[nH]c(Cl)c(/C=C3/C(=O)Nc4ccccc43)c2c1 ?
Result :: F

----------
- Test system: ACHN renal
- Procedure Text: NCI tumour cell line growth inhibition, 48 h
Outcome Measure: TGI (µM)
Enter your answer as a number in µM; do not include the unit.

Query :: What value of TGI has been recorded for this entry: COc1ccc(C(=O)/C=C/c2sc(Cl)nc2Cl)cc1
Result :: 3.05

Query :: What value of TGI has been recorded for this entry: CCOC(=O)/C(=C/CC/C(C)=C/CC/C(C)=C/CCc1ccoc1)CC(=O)N1CCCCC1
Result :: 10.3

----------
- Tested on: OVCAR-8 ovarian
- Procedure Text: NCI tumour cell line growth inhibition, 48 h; in the data active = GI50 below about 0.43 µM; inactive = the rest
Form entry, call: pick from YES = active, NO = inactive

Query :: What was the test verdict on Cc1nnc(C[C@@H]2C=C(c3ccc(Cl)cc3)c3ccccc3-n3c(C)nnc32)o1 ?
Result :: NO

Query :: What was the test verdict on CC/C=C\C[C@H]1C/C=C2/C(=O)C=C[C@H]2C/C=C\CCCC(=O)O1 ?
Result :: NO

Query :: What was the test verdict on COc1ccccc1-n1cnc(N)c1C(=O)c1cc(OC)c(OC)c(OC)c1 ?
Result :: NO

Query :: What was the test verdict on Clc1ccc(-c2cc(-c3ccccc3)nc(N3CCN(CCCNc4ccnc5cc(Cl)ccc45)CC3)n2)cc1 ?
Result :: NO

Query :: What was the test verdict on Cc1cccc2c(C3=C(c4cn(C)c5ccccc45)C(=O)NC3=O)cn(C)c12 ?
Result :: NO

Query :: What was the test verdict on CC1(C)OB(c2ccc(N(CCOS(C)(=O)=O)CCOS(C)(=O)=O)cc2)OC1(C)C ?
Result :: NO

Query :: What was the test verdict on CC(=O)N[C@H](C)[C@@H](O)[C@@H](C)[C@@H]1OC(=O)/C=C/C=C(C)\C=C\[C@]2(C)C[C@@H](NS(C)(=O)=O)C=C[C@@H]2/C=C(C)/C=C/[C@H]1C ?
Result :: YES

Query :: What was the test verdict on C[C@@H]1CC[C@H]2[C@@H](C)C(O)O[C@@H]3O[C@]4(C)CC[C@@H]1[C@]32OO4 (stereo partly drawn) ?
Result :: YES

----------
Exercise: state measured TGI for each of the compounds provided.
- System: SNB-75 CNS
- Procedure Text: NCI tumour cell line growth inhibition, 48 h
Enter your answer as a number in µM; do not include the unit.

Query :: What value of TGI has been recorded for this entry: CCCCCCCCSC(=O)NCCCC
Result :: 84.7

Query :: What value of TGI has been recorded for this entry: NCCOc1ccc(/C(=C(/Cl)c2ccccc2)c2ccccc2)cc1
Result :: 24.1

Query :: What value of TGI has been recorded for this entry: COc1ccc(C=Nc2ccc(-c3nc4ccccc4s3)cc2)cc1OC
Result :: 75.7

Query :: What value of TGI has been recorded for this entry: C[C@@H]1CC[C@H]2[C@@H](C)C(O)O[C@@H]3O[C@]4(C)CC[C@@H]1[C@]32OO4 (stereo partly specified)
Result :: 15.6

Query :: What value of TGI has been recorded for this entry: O=C(Nc1cccc(C(F)(F)F)c1)C(=O)C(C(=O)c1ccc(Cl)c(Cl)c1)C1OC(=O)c2ccccc21 (stereo unspecified)
Result :: 92.3

Query :: What value of TGI has been recorded for this entry: O/N=C1/CCC/C1=C\c1ccccc1
Result :: 44.8

Query :: What value of TGI has been recorded for this entry: C#CCN(N=O)C(=O)NC(CCCCNC(=O)OCc1ccccc1)C(=O)OCc1ccccc1 (stereo unspecified)
Result :: 97.4
